Hey, just so you know, these numbers are from ChEMBL document CHEMBL1140912.

# experimental.system: Macrophage metalloelastase (Homo sapiens, UniProt P39900)
# Sequence (P39900 whole entry): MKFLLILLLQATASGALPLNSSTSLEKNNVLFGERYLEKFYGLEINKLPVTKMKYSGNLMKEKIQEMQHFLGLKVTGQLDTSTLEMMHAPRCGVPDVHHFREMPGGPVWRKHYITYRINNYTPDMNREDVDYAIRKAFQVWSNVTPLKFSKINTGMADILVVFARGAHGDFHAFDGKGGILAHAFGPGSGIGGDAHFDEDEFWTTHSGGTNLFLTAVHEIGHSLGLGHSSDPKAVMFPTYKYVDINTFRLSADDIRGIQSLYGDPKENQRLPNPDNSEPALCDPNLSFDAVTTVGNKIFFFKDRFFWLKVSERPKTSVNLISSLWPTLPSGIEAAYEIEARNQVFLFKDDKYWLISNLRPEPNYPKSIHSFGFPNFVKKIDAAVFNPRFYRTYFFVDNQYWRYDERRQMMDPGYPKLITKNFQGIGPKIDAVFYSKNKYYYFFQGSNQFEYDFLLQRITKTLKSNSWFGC
# method.summary: Inhibition of human recombinant MMP12
readout.name: IC50

QUERY: Need IC50, item NC(=O)CC1CCCc2sc3nc(C(=O)NCc4ccc5c(c4)NC(=O)CO5)[nH]c(=O)c3c21 (racemic)
RESULT: > 10 µM

---

# experimental.system: Matrix metalloproteinase-9 (Homo sapiens)
# Sequence (P14780 whole entry): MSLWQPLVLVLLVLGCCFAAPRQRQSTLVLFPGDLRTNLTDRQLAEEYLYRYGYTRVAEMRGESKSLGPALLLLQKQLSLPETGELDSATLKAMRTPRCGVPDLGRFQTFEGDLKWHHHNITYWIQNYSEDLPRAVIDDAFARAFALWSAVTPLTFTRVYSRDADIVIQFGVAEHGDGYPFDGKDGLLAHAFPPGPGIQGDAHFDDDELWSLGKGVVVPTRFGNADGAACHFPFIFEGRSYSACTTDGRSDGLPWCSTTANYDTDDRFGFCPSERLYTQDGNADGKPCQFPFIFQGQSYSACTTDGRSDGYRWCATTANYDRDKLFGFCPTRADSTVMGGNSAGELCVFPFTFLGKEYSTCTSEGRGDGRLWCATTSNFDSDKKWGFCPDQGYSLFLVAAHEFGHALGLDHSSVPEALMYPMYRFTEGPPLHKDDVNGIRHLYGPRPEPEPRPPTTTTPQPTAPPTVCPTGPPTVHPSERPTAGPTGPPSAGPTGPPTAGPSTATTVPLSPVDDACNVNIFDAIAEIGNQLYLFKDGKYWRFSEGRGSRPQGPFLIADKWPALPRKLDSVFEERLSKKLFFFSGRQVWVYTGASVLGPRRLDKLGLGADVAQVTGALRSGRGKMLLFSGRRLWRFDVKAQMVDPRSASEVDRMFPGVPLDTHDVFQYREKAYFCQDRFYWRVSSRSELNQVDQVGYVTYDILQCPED
# method.summary: Inhibition of human recombinant MMP9
readout.name: IC50

QUERY: Need IC50, item NC(=O)CC1CCCc2sc3nc(C(=O)NCc4ccc5c(c4)NC(=O)CO5)[nH]c(=O)c3c21 (racemic)
RESULT: > 10 µM

---

# experimental.system: 72 kDa type IV collagenase (Homo sapiens, UniProt P08253)
# Sequence (P08253 whole entry): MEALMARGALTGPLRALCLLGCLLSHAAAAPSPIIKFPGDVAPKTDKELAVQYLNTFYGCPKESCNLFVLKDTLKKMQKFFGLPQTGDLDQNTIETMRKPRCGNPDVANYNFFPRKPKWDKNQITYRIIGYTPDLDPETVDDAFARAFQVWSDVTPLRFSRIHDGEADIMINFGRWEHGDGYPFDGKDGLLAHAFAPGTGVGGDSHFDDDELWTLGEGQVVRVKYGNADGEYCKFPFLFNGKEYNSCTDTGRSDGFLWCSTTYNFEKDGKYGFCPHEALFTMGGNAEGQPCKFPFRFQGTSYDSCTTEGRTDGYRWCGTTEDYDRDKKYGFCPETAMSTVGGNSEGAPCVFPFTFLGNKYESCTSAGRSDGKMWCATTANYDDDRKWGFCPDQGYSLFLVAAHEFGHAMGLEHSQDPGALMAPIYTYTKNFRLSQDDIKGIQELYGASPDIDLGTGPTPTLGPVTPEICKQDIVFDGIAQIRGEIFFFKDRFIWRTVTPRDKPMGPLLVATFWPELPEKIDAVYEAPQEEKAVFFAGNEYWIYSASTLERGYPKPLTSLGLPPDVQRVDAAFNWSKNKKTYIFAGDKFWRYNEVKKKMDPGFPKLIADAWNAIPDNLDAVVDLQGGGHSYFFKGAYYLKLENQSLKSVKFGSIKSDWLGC
# method.summary: Inhibition of human recombinant MMP2
pIC50: −log10 of the molar value.
readout.name: pIC50

QUERY: Need pIC50, item NC(=O)CC1CCCc2sc3nc(C(=O)NCc4ccc5c(c4)NC(=O)CO5)[nH]c(=O)c3c21 (racemic)
RESULT: < 5.00
